# credit: patent US20180228780A1

Measured EC50 values are reported for all entries that follow.
Tested on: SW480 colon cancer cells
Test: Cell viability assay (CellTiter-Blue) in SW480 colon cancer cells
Format: cell-based
Settings: Homo sapiens, 96 h; SW480 cell viability, four days incubation

{"columns": ["test smiles", "assay value"],
 "data": [
  ["CN(C)Cc1cncc(-c2cc(F)c3[nH]nc(-c4cc5c(-c6cccc(F)c6)cncc5[nH]4)c3c2)c1", "1040 nM"],
  ["Fc1ccccc1-c1cncc2[nH]c(-c3n[nH]c4ccc(-c5cncc(OC6CCNCC6)c5)cc34)cc12", "1350 nM"]
]}

Please turn your attention to the following entry.
QUERY: Query the reported EC50 for SW480 colon cancer cells; item: `c1cc2cc(-c3n[nH]c4ccc(-c5cncc(CNCC6CCCC6)c5)cc34)[nH]c2cn1`
RESULT: 1390 nM
